assayed_target: T1, HCV Core1-169 (hepatitis C virus (HCV-1), UniProt P26664 1-169)
T1 sequence: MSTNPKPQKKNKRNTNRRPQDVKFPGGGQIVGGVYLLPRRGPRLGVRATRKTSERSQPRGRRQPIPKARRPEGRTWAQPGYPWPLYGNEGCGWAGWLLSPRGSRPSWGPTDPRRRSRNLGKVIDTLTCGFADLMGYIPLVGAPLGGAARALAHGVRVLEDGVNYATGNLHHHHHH
test_name: SPR sandwich, capture mAb C11-3
measurement_kind: expected percent binding (%)

HCV 208A-877 (antibody, V domains shown) VH: QLQQSGPELVKPGASVKISCKTSGYTFTENAMHWVKQSRGKSLEWIGGVNPNNGDTVYTQKFKGKATLTVAKSSSTAYMELRTMTCEESTVYYCASREPDFFDYWGQGSSVTVSS VL: QIVLTQSPAIMSVSPGEKVSMTCSASSSVTYMHWYQQKSGTSPKRWIYDTSELASGVPARFSGSGSGTTYSLTISSMEAEDAATYYCQQWSNKPLTFGAGTKLELKR | 9.4
HCV 208B-395 (antibody, V domains shown) VH: QVQLQQSGAGLAKPGASVKMSCKASGYTFTANKMHWTKQRPGQGLEWIGYIDPSSGYTQYNHKIQDKATLTADTSSSTAYMQLSSLTFEDSAVYYCTNFAYWGQGTLVTVSA VL: DIVLTQSPATLSVTPGDRVSLSCRASQRIYNYLHWYQQKSHESPRLLIKYASQSISGIPSRFSGSGSGTDFILTINSVETEDFGMYFCQQSNSWPLTFGAGTKLELRR | 7.6
HCV 208B-251 (antibody, V domains shown) VH: QLQQSGPVLVKPGASVKISCKTSGYTFTENAMHWVKQSHGKSLEWIGGVNPNNGDTIYNQKFKGKATLTVDKSSSTAFMELRSLTSEESPVYFCVRRELDFFDYWGQGTSVTVSS VL: DIVLTQSPASLAVSLGKKATISCRASQSVSTSRYSYMHWYQQKPGHPPKLLIKYASNLESGVPARFSGSGSGTDFTLNIHPVAEEDTAAYYCQHSWEFPFTFGSGTKLEIKR | 16.6

Values were extracted from patent US20170052184A1.
